B1: library; numbered along this chain (parent)
chain: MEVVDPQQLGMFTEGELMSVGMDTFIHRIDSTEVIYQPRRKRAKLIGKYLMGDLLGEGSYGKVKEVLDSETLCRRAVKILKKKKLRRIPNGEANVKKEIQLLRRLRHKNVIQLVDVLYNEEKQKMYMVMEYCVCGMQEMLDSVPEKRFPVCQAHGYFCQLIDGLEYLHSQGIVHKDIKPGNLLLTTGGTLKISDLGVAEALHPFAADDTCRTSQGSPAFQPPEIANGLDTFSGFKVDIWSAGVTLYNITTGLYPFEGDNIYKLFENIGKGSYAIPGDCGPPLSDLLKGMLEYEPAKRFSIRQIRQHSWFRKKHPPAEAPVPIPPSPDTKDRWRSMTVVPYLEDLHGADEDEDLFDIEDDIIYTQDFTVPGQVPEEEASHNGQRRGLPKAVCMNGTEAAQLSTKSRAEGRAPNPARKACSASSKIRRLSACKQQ

Variants of: B1
test.summary: STK11 functional score (HeLa growth suppression), rescaled enrichment; synonymous median = 1, nonsense median = 0 (normalised score)
run.parameters: with HeLa; variant type: missense
Please respond with true (1) when measured STK11 functional score is strictly beneath 1, and with false (0) in all other cases.

> print(dat)
   sequence.variant      class
1             V143S  false (0)
2             M129K  false (0)
3             R106T  false (0)
4              K97W   true (1)
5             N119W  false (0)
6             E265W  false (0)
7             C278A  false (0)
8              L85G   true (1)

Data provenance: the supplement of paper PMC12338614
